Data provenance is PubChem BioAssay.

Assay comment: small-molecule binders of probe aInhba, primary screen, biochemical, small-molecule microarray, 635/667 nm fluorescence (AID 1148);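 note: score merges 667nm spot fluorescence with signal-to-noise for antibody binding to printed compounds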
Details: higher = more signal
Quantity measured: composite z-score
Could you respond with only the numeric value?

>  <Compound>
COc1ccc([Si](C)(C)[C@H]2[C@H](CCO)O[C@@]3(C(=O)N(Cc4ccc(N5C(=O)COc6ccccc65)cc4)c4ccccc43)[C@@H]2C)cc1

>  <Observed result>
-0.128

$$$$
>  <Compound>
COCCn1c(C(=O)N2CCCC2)cc2c1C[C@H]1CN(C(=O)c3ccccc3)[C@@](Cc3ccc(F)cc3)(C(=O)OC)[C@@H]21

>  <Observed result>
-0.0931

$$$$
>  <Compound>
CCCCC(=C=CC[C@@H](O)c1ccccc1OCCO)CCO

>  <Observed result>
0.0173

$$$$
>  <Compound>
O=C(C1N=C(c2ccc(OCCCO)cc2)N(c2ccccc2)O1)N1CCOCC1 (stereo not given)

>  <Observed result>
0.0947

$$$$

Note composite z-score for the compound shown: `O=C1c2ccccc2[C@@]2(Cc3ccccc3N(CCN3CCOCC3)C2=O)[C@H](c2ccc(CO)cc2)N1Cc1ccccc1`
-0.231

Note composite z-score for the compound shown: `CC[C@@H]1C=C(C(=O)O)[C@H](c2ccco2)N1S(=O)(=O)c1ccc(C)cc1`
0.0228

Note composite z-score for the compound shown: `COc1ccc(C#Cc2ccc3c(c2)[C@]2(C(=O)N3)[C@H](c3ccccc3OCCO)N3[C@H](c4ccccc4)[C@H](c4ccccc4)OC(=O)[C@H]3[C@@H]2C(=O)O)cc1`
0.909

Note composite z-score for the compound shown: `[N-]=[N+]=NCc1ccccc1[C@H]1OC(c2ccc(OCCCO)cc2)=N[C@@]1(Cc1ccccc1)C(=O)NCc1ccccc1`
-0.466

Note composite z-score for the compound shown: `COc1ccc(C(=O)Nc2ccc(CN3C(=O)[C@@]4(O[C@@H](CCO)[C@H]([Si](C)(C)c5ccc(OC)cc5)[C@H]4C)c4ccccc43)cc2)cc1`
-0.201

Note composite z-score for the compound shown: CN1C(=O)C2C=CC(C(O)c3cccs3)N(Nc3ccccc3)C2C1=O (stereo not given)
0.406

Note composite z-score for the compound shown: `COc1ccc([Si](C)(C)[C@@H]2[C@@H](CCO)O[C@]3(C(=O)N(Cc4ccc(N5C(=O)COc6ccccc65)cc4)c4ccccc43)[C@H]2C)cc1`
0.0261

Note composite z-score for the compound shown: `CCCCc1cn(C[C@H](Cc2ccccc2)NC(=O)N[C@H](CO)CCc2oc(C(C)=O)c(C(=O)OC)c2C(=O)OC)nn1`
-0.0448

Note composite z-score for the compound shown: `COCCOC(=O)N1C(=O)[C@@]2(c3cc(C#CC4(O)CCCCCC4)ccc31)[C@H](c1ccc(O)cc1)N1[C@H](c3ccccc3)[C@H](c3ccccc3)OC(=O)[C@H]1[C@@H]2C(=O)Nc1nc2ccccc2s1`
0.741

Note composite z-score for the compound shown: `COc1ccc(CCN2C(=O)[C@@]3(Cc4ccccc42)c2ccccc2C(=O)N(Cc2ccccc2C(F)(F)F)[C@H]3c2ccc(CO)cc2)cc1`
-0.208

Note composite z-score for the compound shown: `CC(C)[C@@H](CO)NC(=O)[C@H]1[C@@H](c2ccccc2)N(c2ccccc2)O[C@@H]1C`
0.0953
